Just for reference, the supplement of paper PMC12645437 is where these values come from.

Provide the reported log2 fold change of degron read counts of each item.
Target: T1, CRBN, Q96SW2;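 also: pooled lentiviral library of zinc finger degron-EGFP fusions in mCherry-positive Jurkat cells, FACS-sorted after compound exposure, with degron abundance counted by next-generation sequencing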
T1 chain: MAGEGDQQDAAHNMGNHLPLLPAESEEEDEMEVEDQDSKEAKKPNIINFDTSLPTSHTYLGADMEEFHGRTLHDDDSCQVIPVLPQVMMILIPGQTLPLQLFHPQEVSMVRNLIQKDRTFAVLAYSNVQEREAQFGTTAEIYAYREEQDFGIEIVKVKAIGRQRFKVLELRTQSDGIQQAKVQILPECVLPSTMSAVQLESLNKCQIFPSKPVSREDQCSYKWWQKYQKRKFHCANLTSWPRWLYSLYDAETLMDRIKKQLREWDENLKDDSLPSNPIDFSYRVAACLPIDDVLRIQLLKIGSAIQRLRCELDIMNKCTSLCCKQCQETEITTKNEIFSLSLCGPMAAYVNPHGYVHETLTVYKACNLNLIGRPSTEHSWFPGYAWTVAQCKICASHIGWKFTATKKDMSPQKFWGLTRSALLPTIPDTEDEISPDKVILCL
Assay: log2 fold change of degron read counts, EGFP-low vs EGFP+ sorted cells (limma voom), compound-induced degradation; higher = more compound-induced degradation of the degron-EGFP fusion; degrons are variants of IKZF1/3 zinc finger 2; compound dose not given here
Settings: Jurkat; 18 h; compound: compound 33 (diphenyl IMiD analogue)
Whole data set: some 8,300 sequences, median “log2 fold change of degron read counts, EGFP-low vs EGFP+ sorted cells (limma voom), compound-induced degradation” near -1.1, cut for the highest 2% near 3.2. This is one part of a sample in which the highest values are shown more often than they occur.
Just the number, please, no unit attached.

Consider the sequence shown here: FWCPVCGASFTQKGNLLRHIKL [46F_47W_49P_50V_52G_53A_54S_55F_67L_, Q9UKT9] What is its recorded log2 fold change of degron read counts?
2.42

Consider the sequence shown here: FECDVCGASFTQKGNLLRHIKL [46F_47E_49D_50V_52G_53A_54S_55F_67L_, Q9UKT9] What is its recorded log2 fold change of degron read counts?
-0.519

Consider the sequence shown here: FHCNICGAIFTQKGNLLRHIKL [46F_47H_49N_50I_52G_53A_54I_55F_67L_, Q9UKT9] What is its recorded log2 fold change of degron read counts?
-0.0029

Consider the sequence shown here: FRCSVCGHPFTQKGNLLRHIKL [46F_47R_49S_50V_52G_53H_54P_55F_67L_, Q9UKT9] What is its recorded log2 fold change of degron read counts?
-0.252

Consider the sequence shown here: FVCEVCGAKFTQKGNLLRHIKL [46F_47V_49E_50V_52G_53A_54K_55F_67L_, Q9UKT9] What is its recorded log2 fold change of degron read counts?
0.0419

Consider the sequence shown here: FQCNICGAIFTQKGNLLRHIKL [46F_47Q_49N_50I_52G_53A_54I_55F_67L_, Q9UKT9] What is its recorded log2 fold change of degron read counts?
2.21

Consider the sequence shown here: FNCEICGRGFTQKGNLLRHIKL [46F_47N_49E_50I_52G_53R_54G_55F_67L_, Q9UKT9] What is its recorded log2 fold change of degron read counts?
-2.3
